Values compiled from patent US9555039B2.

Entries annotated with measured IC50
# Tested on: A2780 cells
# Protocol summary: In-vitro cell proliferation assay (SRB, 72 hours)
# Assay type: cell-based
# Condition info: Homo sapiens, sulforhodamine B (SRB) assay

- Record smiles: "COc1cc(Cl)ccc1C(=O)N1CCC(CCCCNC(=O)c2ccc3nccn3c2)CC1"
  Target of assay: "A2780 cells"
  IC50: "27 nM"
- Record smiles: "O=C(NCCCCC1CCN(C(=O)c2ccc(Cl)c(Cl)c2)CC1)c1cc2cnccc2[nH]1"
  Target of assay: "A2780 cells"
  IC50: "58 nM"
- Record smiles: "COc1cc(Cl)ccc1C(=O)N1CCC(CCCCNC(=O)c2cc3cnccc3[nH]2)CC1"
  Target of assay: "A2780 cells"
  IC50: "6.1 nM"
- Record smiles: "O=C(NCCCCC1CCN(S(=O)(=O)c2ccc(Cl)cc2)CC1)c1cc2cnccc2[nH]1"
  Target of assay: "A2780 cells"
  IC50: "27.5 nM"
- Record smiles: "COc1cc(OC)cc(C(=O)N2CCC(CCCCNC(=O)c3cc4cnccc4[nH]3)CC2)c1"
  Target of assay: "A2780 cells"
  IC50: "2.6 nM"
- Record smiles: "Cc1c(F)cccc1C(=O)N1CCC(CCCCNC(=O)c2cc3ccncc3s2)CC1"
  Target of assay: "A2780 cells"
  IC50: "3.2 nM"
- Record smiles: "O=C(NCCCCC1CCN(S(=O)(=O)c2ccc(F)cc2)CC1)c1cc2cnccc2[nH]1"
  Target of assay: "A2780 cells"
  IC50: "17.6 nM"
- Record smiles: "O=C(NCCCCC1CCN(C(=O)c2ccccc2F)CC1)c1ccc2nccn2c1"
  Target of assay: "A2780 cells"
  IC50: "0.5 nM"
- Record smiles: "O=C(NCCCCC1CCN(C(=O)c2cnccc2C(F)(F)F)CC1)c1ccc2nccn2c1"
  Target of assay: "A2780 cells"
  IC50: "3.8 nM"
- Record smiles: "O=C(NCCCCC1CCN(C(=O)c2ccccc2OC(F)(F)F)CC1)c1ccc2nccn2c1"
  Target of assay: "A2780 cells"
  IC50: "1.9 nM"
- Record smiles: "Cn1cc(CC(=O)N2CCC(CCCCNC(=O)c3cc4cnccc4[nH]3)CC2)c2ccccc21"
  Target of assay: "A2780 cells"
  IC50: "11.2 nM"
- Record smiles: "O=C(NCCCCC1CCN(C(=O)c2ccc(C(F)(F)F)cn2)CC1)c1cc2ccncc2s1"
  Target of assay: "A2780 cells"
  IC50: "100 to 1000 nM"
- Record smiles: "O=C(NCCCCC1CCN(C(=O)C2CCCCC2)CC1)c1cc2cnccc2[nH]1"
  Target of assay: "A2780 cells"
  IC50: "15.5 nM"
- Record smiles: "COc1cccc(C(=O)N2CCC(CCCCNC(=O)c3cc4ccncc4s3)CC2)c1OC"
  Target of assay: "A2780 cells"
  IC50: "5.6 nM"
- Record smiles: "O=C(NCCCCC1CCN(C(=O)c2ccc(F)cn2)CC1)c1cc2ccncc2s1"
  Target of assay: "A2780 cells"
  IC50: "100 to 1000 nM"
- Record smiles: "Cc1cnc(C(=O)N2CCC(CCCCNC(=O)c3ccc4nccn4c3)CC2)cn1"
  Target of assay: "A2780 cells"
  IC50: "66.7 nM"
- Record smiles: "CC(=O)N1CCC(C(=O)N2CCC(CCCCNC(=O)c3ccc4nccn4c3)CC2)CC1"
  Target of assay: "A2780 cells"
  IC50: "27.8 nM"
- Record smiles: "O=C(NCCCCC1CCN(C(=O)c2csc(C(F)(F)F)n2)CC1)c1ccc2nccn2c1"
  Target of assay: "A2780 cells"
  IC50: "74 nM"
- Record smiles: "O=C(NCCCCCCOc1ccc(Cl)cc1)c1ccc2ncccc2c1"
  Target of assay: "A2780 cells"
  IC50: "9890 nM"
- Record smiles: "O=C(NCCCCN1CCN(C(=O)c2ccccc2)CC1)c1cc2cnccc2[nH]1"
  Target of assay: "A2780 cells"
  IC50: "94.7 nM"
- Record smiles: "CC(C)c1ccc(C(=O)N2CCC(CCCCNC(=O)c3ccc4nccn4c3)CC2)cn1"
  Target of assay: "A2780 cells"
  IC50: "26.1 nM"
- Record smiles: "O=C(NCCCCC1CCN(C(=O)c2csc(-c3ccccc3)n2)CC1)c1cc2ccncc2s1"
  Target of assay: "A2780 cells"
  IC50: "76.2 nM"
- Record smiles: "O=C(NCCCCC1CCN(C(=O)c2cccnc2)CC1)c1ccc2nccn2c1"
  Target of assay: "A2780 cells"
  IC50: "27.4 nM"
- Record smiles: "O=C(NCCCCC1CCN(C(=O)c2ccccc2F)CC1)c1cc2cnccc2[nH]1"
  Target of assay: "A2780 cells"
  IC50: "0.5 nM"
- Record smiles: "O=C(NCCCCC1CCN(C(=O)c2ccc(OC(F)F)cc2)CC1)c1cc2cnccc2[nH]1"
  Target of assay: "A2780 cells"
  IC50: "31.4 nM"
- Record smiles: "O=C(NCCCCC1CCN(C(=O)c2ccc3cc[nH]c3c2)CC1)c1cc2cnccc2[nH]1"
  Target of assay: "A2780 cells"
  IC50: "13.4 nM"
- Record smiles: "COc1cccc(OC)c1C(=O)N1CCC(CCCCNC(=O)c2cc3cnccc3[nH]2)CC1"
  Target of assay: "A2780 cells"
  IC50: "1.4 nM"
- Record smiles: "Cn1c(C(=O)N2CCC(CCCCNC(=O)c3ccc4nccn4c3)CC2)cc2ccccc21"
  Target of assay: "A2780 cells"
  IC50: "55.1 nM"
- Record smiles: "O=C(NCCCCC1CCN(C(=O)c2cccc(Cl)c2Cl)CC1)c1cc2cnccc2[nH]1"
  Target of assay: "A2780 cells"
  IC50: "3.2 nM"
- Record smiles: "Cn1c(C(=O)N2CCC(CCCCNC(=O)c3cc4cnccc4[nH]3)CC2)cc2ccccc21"
  Target of assay: "A2780 cells"
  IC50: "23.8 nM"
- Record smiles: "Cc1c(F)cccc1C(=O)N1CCC(CCCCNC(=O)c2cc3cnccc3[nH]2)CC1"
  Target of assay: "A2780 cells"
  IC50: "3.1 nM"
- Record smiles: "Cc1ncsc1C(=O)N1CCC(CCCCNC(=O)c2cc3cnccc3[nH]2)CC1"
  Target of assay: "A2780 cells"
  IC50: "1 nM"
- Record smiles: "Cc1ccc(C(=O)N2CCC(CCCCNC(=O)c3ccc4nccn4c3)CC2)cn1"
  Target of assay: "A2780 cells"
  IC50: "73.6 nM"
- Record smiles: "O=C(NCCCCC1CCN(C(=O)c2ccc(C(F)(F)F)cc2)CC1)c1cc2ccncc2s1"
  Target of assay: "A2780 cells"
  IC50: "1000 nM"
- Record smiles: "COc1cccc(OC)c1C(=O)N1CCC(CCCCNC(=O)c2cc3ccncc3s2)CC1"
  Target of assay: "A2780 cells"
  IC50: "1.2 nM"
- Record smiles: "O=C(NCCCCC1CCN(C(=O)c2ccc(C(F)(F)F)cc2)CC1)c1cc2cnccc2[nH]1"
  Target of assay: "A2780 cells"
  IC50: "38.1 nM"
- Record smiles: "O=C(NCCCCC1CCN(C(=O)c2ccccc2)CC1)c1cc2ccncc2s1"
  Target of assay: "A2780 cells"
  IC50: "1.2 nM"
- Record smiles: "O=C(NCCCCC1CCN(S(=O)(=O)c2ccc(C(F)(F)F)cc2)CC1)c1cc2cnccc2[nH]1"
  Target of assay: "A2780 cells"
  IC50: "23.3 nM"
- Record smiles: "CC(C)c1ccc(C(=O)N2CCC(CCCCNC(=O)c3cc4cnccc4[nH]3)CC2)cn1"
  Target of assay: "A2780 cells"
  IC50: "13.2 nM"
